biological target: UniProt:Q28838; assay: Binding activity against alpha-2 adrenergic receptor from calf cerebral cortex, using [3H]clonidine as the radioligand; format: tissue-based
Sequence (Q28838 whole entry): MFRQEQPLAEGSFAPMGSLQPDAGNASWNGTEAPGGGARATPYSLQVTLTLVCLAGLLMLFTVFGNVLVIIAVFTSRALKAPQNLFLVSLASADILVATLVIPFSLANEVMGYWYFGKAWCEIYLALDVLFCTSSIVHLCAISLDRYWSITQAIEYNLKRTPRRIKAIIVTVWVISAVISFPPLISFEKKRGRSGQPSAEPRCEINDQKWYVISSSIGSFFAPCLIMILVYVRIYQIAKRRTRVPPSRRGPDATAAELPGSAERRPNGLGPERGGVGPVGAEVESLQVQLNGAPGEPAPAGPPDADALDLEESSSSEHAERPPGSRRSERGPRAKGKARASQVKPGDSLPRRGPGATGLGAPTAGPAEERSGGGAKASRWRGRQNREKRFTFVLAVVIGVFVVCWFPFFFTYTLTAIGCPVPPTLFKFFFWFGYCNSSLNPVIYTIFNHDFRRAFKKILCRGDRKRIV
Lab note: cut-off is 30 nM. Strictly less in Ki is Condition met. Exactly 30 nM or more is Condition not met.

Data request: I wonder whether `Clc1cnccc1N1CCNCC1` has Ki below 30 nM. Can you tell?
Data returned: Condition not met

---

Target: Alpha-1A adrenergic receptor (Bos taurus, UniProt P18130)
Sequence (P18130 whole entry): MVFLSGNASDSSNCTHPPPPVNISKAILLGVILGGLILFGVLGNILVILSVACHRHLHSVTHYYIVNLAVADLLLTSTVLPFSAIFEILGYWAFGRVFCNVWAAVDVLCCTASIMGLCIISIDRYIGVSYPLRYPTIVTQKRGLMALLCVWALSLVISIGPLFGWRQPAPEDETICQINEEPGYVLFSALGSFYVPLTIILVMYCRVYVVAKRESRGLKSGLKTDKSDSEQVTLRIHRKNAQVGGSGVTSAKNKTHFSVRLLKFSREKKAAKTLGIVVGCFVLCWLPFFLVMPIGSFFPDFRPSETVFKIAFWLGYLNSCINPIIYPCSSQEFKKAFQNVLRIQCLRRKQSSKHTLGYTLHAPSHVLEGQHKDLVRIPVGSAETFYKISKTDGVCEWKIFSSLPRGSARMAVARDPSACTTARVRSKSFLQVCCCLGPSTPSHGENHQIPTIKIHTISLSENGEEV
pKi overview
Here pKi is given on a logarithmic scale as minus log10 of the concentration in mol/L.

Example entries and their recorded answers appear below.
>  <compound>
Cc1ccnc(N2CCNCC2)c1Cl

>  <experimental-system>
Alpha-1A adrenergic receptor (Bos taurus, UniProt P18130)

>  <measured-endpoint>
pKi

>  <recorded-value>
5.37

$$$$
>  <compound>
Clc1ccccc1N1CCNCC1

>  <experimental-system>
Alpha-1A adrenergic receptor (Bos taurus, UniProt P18130)

>  <measured-endpoint>
pKi

>  <recorded-value>
6.80

$$$$
>  <compound>
c1ccc2c(c1)OCC(C1=NCCN1)O2 (centres undefined) [IDAZOXAN]

>  <experimental-system>
Alpha-1A adrenergic receptor (Bos taurus, UniProt P18130)

>  <measured-endpoint>
pKi

>  <recorded-value>
6.30

$$$$

Now for another entry.
Data request: Would you mind telling me what pKi value was observed for `Clc1cccnc1N1CCNCC1` ?
Data returned: 5.74
